- System: Staphylococcus epidermidis
- TEST DESCRIPTION: Antibacterial activity against methicillin resistant Staphylococcus epidermidis NRS101 assessed as reduction in bacterial cell growth incubated for 18 to 20 hrs by broth microdilution method
- Type: functional
PROPERTY MEASURED: MIC (µg/mL)
Give the value, in units of µg/mL, as a plain number.

The cases that follow already have their MIC on record.
SMILES TEXT | MIC [µg/mL]
C/C(=N\NC(=N)N)c1sc(-c2ccc(C#CC3(O)CCCCC3)cc2)nc1C | 4
C/C(=N\NC(=N)N)c1sc(-c2ccc(C#CC(C)(C)O)cc2)nc1C | 4
C/C(=N\NC(=N)N)c1sc(-c2ccc(C#Cc3ccc(N)cc3)cc2)nc1C | 2
C/C(=N\NC(=N)N)c1sc(-c2ccc(C#Cc3ccc(C)s3)cc2)nc1C | 4
C/C(=N\NC(=N)N)c1sc(-c2ccc(C#Cc3cccc(O)c3)cc2)nc1C | 2

Please turn your attention to the following entry.
Prompt: Give the reported MIC for this compound. C/C(=N\NC(=N)N)c1sc(-c2ccc(C#Cc3cccs3)cc2)nc1C
Completion: 1

---

- Tested on: Enterococcus faecalis
- TEST DESCRIPTION: Bactericidal activity against vancomycin resistant Enterococcus faecalis ATCC 51299 assessed as reduction in bacterial cell growth incubated for 18 to 20 hrs followed by re-plating on tryptic soy agar plates at 37 degC for 18 hrs by broth microdilution assay
- Type: functional
PROPERTY MEASURED: MBC

Prompt: Give the reported MBC for this compound. C/C(=N\NC(=N)N)c1sc(-c2ccc(C#Cc3ccc(C)s3)cc2)nc1C
Completion: 64 µg/mL

Prompt: Give the reported MBC for this compound. CN[C@H](CC(C)C)C(=O)N[C@H]1C(=O)N[C@@H](CC(N)=O)C(=O)N[C@H]2C(=O)N[C@H]3C(=O)N[C@H](C(=O)N[C@H](C(=O)O)c4cc(O)cc(O)c4-c4cc3ccc4O)[C@H](O)c3ccc(c(Cl)c3)Oc3cc2cc(c3O[C@@H]2O[C@H](CO)[C@@H](O)[C@H](O)[C@H]2O[C@H]2C[C@](C)(N)[C@H](O)[C@H](C)O2)Oc2ccc(cc2Cl)[C@H]1O [VANCOMYCIN]
Completion: > 64 µg/mL

Prompt: Give the reported MBC for this compound. C/C(=N\NC(=N)N)c1sc(-c2ccc(C#CC(C)(C)O)cc2)nc1C
Completion: 8 µg/mL

Prompt: Give the reported MBC for this compound. C/C(=N\NC(=N)N)c1sc(-c2ccc(C#CC3(O)CCCCC3)cc2)nc1C
Completion: 16 µg/mL

Prompt: Give the reported MBC for this compound. C/C(=N\NC(=N)N)c1sc(-c2ccc(C#Cc3cccs3)cc2)nc1C
Completion: > 64 µg/mL

Prompt: Give the reported MBC for this compound. C/C(=N\NC(=N)N)c1sc(-c2ccc(C#Cc3ccc(N)cc3)cc2)nc1C
Completion: > 64 µg/mL

Prompt: Give the reported MBC for this compound. C/C(=N\NC(=N)N)c1sc(-c2ccc(C#Cc3cccc(O)c3)cc2)nc1C
Completion: 64 µg/mL

Prompt: Give the reported MBC for this compound. CC(=O)NC[C@H]1CN(c2ccc(N3CCOCC3)c(F)c2)C(=O)O1 [LINEZOLID]
Completion: 32 µg/mL

---

- Test system: Enterococcus faecium
- TEST DESCRIPTION: Bactericidal activity against vancomycin resistant Enterococcus faecium ATCC 700221 assessed as reduction in bacterial cell growth incubated for 18 to 20 hrs followed by re-plating on tryptic soy agar plates at 37 degC for 18 hrs by broth microdilution assay
- Format: functional
PROPERTY MEASURED: MBC (µg/mL)
Give the value, in units of µg/mL, as a plain number.

Prompt: Give the reported MBC for this compound. C/C(=N\NC(=N)N)c1sc(-c2ccc(C#CC3(O)CCCCC3)cc2)nc1C
Completion: 1

---

- Test system: J774
- TEST DESCRIPTION: Cytotoxicity against mouse J774 assessed as reduction in cell viability at 16 ug/ml incubated for 24 hrs by MTS assay
- Type: cell-based
- COND: j774, 24 h
PROPERTY MEASURED: Activity

The cases that follow already have their Activity on record.
SMILES TEXT | Activity
C/C(=N\NC(=N)N)c1sc(-c2ccc(C#CC(C)(C)O)cc2)nc1C | Toxic
C/C(=N\NC(=N)N)c1sc(-c2ccc(C#Cc3ccc(N)cc3)cc2)nc1C | Non-Toxic
C/C(=N\NC(=N)N)c1sc(-c2ccc(C#Cc3ccccc3)cc2)nc1C | Toxic
C/C(=N\NC(=N)N)c1sc(-c2ccc(C#Cc3cccs3)cc2)nc1C | Toxic
C/C(=N\NC(=N)N)c1sc(-c2ccc(C#CC3(O)CCCCC3)cc2)nc1C | Non-Toxic

Prompt: Give the reported Activity for this compound. C/C(=N\NC(=N)N)c1sc(-c2ccc(C#Cc3cccc(O)c3)cc2)nc1C
Completion: Non-Toxic

Prompt: Give the reported Activity for this compound. C/C(=N\NC(=N)N)c1sc(-c2ccc(C#Cc3ccc(C)s3)cc2)nc1C
Completion: Non-Toxic

---

- Test system: Escherichia coli
- TEST DESCRIPTION: Bactericidal activity against Escherichia coli JW55031 harboring deltatolC mutant assessed as reduction in bacterial cell growth incubated for 18 to 20 hrs followed by re-plating on tryptic soy agar plates at 37 degC for 18 hrs by broth microdilution assay
- Format: functional
PROPERTY MEASURED: MBC (µg/mL)
Give the value, in units of µg/mL, as a plain number.

The cases that follow already have their MBC on record.
SMILES TEXT | TARGET OR TEST SYSTEM | MBC [µg/mL]
C/C(=N\NC(=N)N)c1sc(-c2ccc(C#CC3(O)CCCCC3)cc2)nc1C | Escherichia coli | 32
C/C(=N\NC(=N)N)c1sc(-c2ccc(C#Cc3ccc(N)cc3)cc2)nc1C | Escherichia coli | 16
C/C(=N\NC(=N)N)c1sc(-c2ccc(C#Cc3ccc(C)s3)cc2)nc1C | Escherichia coli | 64
CC[C@H]1OC(=O)[C@H](C)[C@@H](O[C@H]2C[C@@](C)(OC)[C@@H](O)[C@H](C)O2)[C@H](C)[C@@H](O[C@@H]2O[C@H](C)C[C@H](N(C)C)[C@H]2O)[C@](C)(O)C[C@@H](C)C(=O)[C@H](C)[C@@H](O)[C@]1(C)O | Escherichia coli | 2

Prompt: Give the reported MBC for this molecule. C/C(=N\NC(=N)N)c1sc(-c2ccc(C#CC(C)(C)O)cc2)nc1C
Completion: 16

---

- System: Staphylococcus aureus
- TEST DESCRIPTION: Bactericidal activity against vancomycin resistant Staphylococcus aureus VRS10 assessed as reduction in bacterial cell growth incubated for 18 to 20 hrs followed by re-plating on tryptic soy agar plates at 37 degC for 18 hrs by broth microdilution assay
- Type: functional
PROPERTY MEASURED: MBC

The cases that follow already have their MBC on record.
SMILES TEXT | PROPERTY MEASURED | RESULT
C/C(=N\NC(=N)N)c1sc(-c2ccc(C#CC3(O)CCCCC3)cc2)nc1C | MBC | 8 µg/mL
C/C(=N\NC(=N)N)c1sc(-c2ccc(C#Cc3cccc(O)c3)cc2)nc1C | MBC | 4 µg/mL
CC(=O)NC[C@H]1CN(c2ccc(N3CCOCC3)c(F)c2)C(=O)O1 | MBC | 16 µg/mL
C/C(=N\NC(=N)N)c1sc(-c2ccc(C#CC(C)(C)O)cc2)nc1C | MBC | 16 µg/mL
C/C(=N\NC(=N)N)c1sc(-c2ccc(C#Cc3ccc(C)s3)cc2)nc1C | MBC | 8 µg/mL
C/C(=N\NC(=N)N)c1sc(-c2ccc(C#Cc3ccc(N)cc3)cc2)nc1C | MBC | 32 µg/mL
CN[C@H](CC(C)C)C(=O)N[C@H]1C(=O)N[C@@H](CC(N)=O)C(=O)N[C@H]2C(=O)N[C@H]3C(=O)N[C@H](C(=O)N[C@H](C(=O)O)c4cc(O)cc(O)c4-c4cc3ccc4O)[C@H](O)c3ccc(c(Cl)c3)Oc3cc2cc(c3O[C@@H]2O[C@H](CO)[C@@H](O)[C@H](O)[C@H]2O[C@H]2C[C@](C)(N)[C@H](O)[C@H](C)O2)Oc2ccc(cc2Cl)[C@H]1O | MBC | > 64 µg/mL

Prompt: Given C/C(=N\NC(=N)N)c1sc(-c2ccc(C#Cc3cccs3)cc2)nc1C , report its MBC on Staphylococcus aureus.
Completion: 16 µg/mL

---

- TEST DESCRIPTION: Solubility of compound in PBS after 2 hrs by turbidity based absorbance analysis
- Type: physicochemical
Known solubility kinetic at 2 h of a selection of compounds
Give the value, in units of µM, as a plain number.

The cases that follow already have their solubility kinetic at 2 h on record.
SMILES TEXT | solubility kinetic at 2 h / µM
C/C(=N\NC(=N)N)c1sc(-c2ccc(C#Cc3cccs3)cc2)nc1C | 50
C/C(=N\NC(=N)N)c1sc(-c2ccc(C#CC3(O)CCCCC3)cc2)nc1C | 147
C/C(=N\NC(=N)N)c1sc(-c2ccc(C#CC3CCCCC3)cc2)nc1C | 2.7
CCCCc1ccc(-c2nc(C)c(/C(C)=N/NC(=N)N)s2)cc1 | 65

Prompt: Give the reported solubility kinetic at 2 h for this compound. C/C(=N\NC(=N)N)c1sc(-c2ccc(C#CC(C)(C)O)cc2)nc1C
Completion: 320
